Reported values of IC50 for individual entries
tested on: CCRF-CEM; test: Cytotoxicity against human CCRF-CEM cells by MTT assay; format: functional, cell-based
Express the result in µM but write the number alone.

Known results for compounds:
COc1cc([C@@H]2c3cc4c(cc3[C@@H](O[C@@H]3O[C@@H]5CO[C@@H](C)O[C@H]5[C@H](O)[C@H]3O)[C@H]3COC(=O)[C@H]23)OCO4)cc(OC)c1O [ETOPOSIDE]	1.1
C=C1/C=C/[C@H](C(C)(C)O)C[C@H]2[C@@H](CC(C)C)c3c(O)c(C=O)c(O)c(C=O)c3O[C@]2(C)CCC1	3.3
CC(C)CC(=O)c1c(O)c(C=O)c(O)c(C[C@@]2(C)CC[C@H]3C2=C[C@H](C(C)(C)O)CC[C@H]3C)c1O	6.9

Pending compound:
Q) Provide value of IC50 for this record tested with CCRF-CEM: CC[C@@]1(O)C(=O)OCc2c1cc1n(c2=O)Cc2cc3ccccc3nc2-1 [CAMPTOTHECIN]
A) 0.002

====

tested on: Huh-7; experiment: Cytotoxicity against human HuH7 cells by MTT assay; format: functional, cell-based
measured metric: IC50

Known results for compounds:
CC[C@@]1(O)C(=O)OCc2c1cc1n(c2=O)Cc2cc3ccccc3nc2-1 [CAMPTOTHECIN]	0.0023 µM
CC(C)CC(=O)c1c(O)c(C=O)c(O)c(C[C@@]2(C)CC[C@H]3C2=C[C@H](C(C)(C)O)CC[C@H]3C)c1O	> 10 µM
CC(C)CC(=O)c1c(O)c(C=O)c(O)c(C[C@@]2(C)CC[C@@H]3[C@@H]2[C@H]2[C@@H](CC[C@@]3(C)O)C2(C)C)c1O [EUCALYPTIN A]	> 10 µM
COc1cc([C@@H]2c3cc4c(cc3[C@@H](O[C@@H]3O[C@@H]5CO[C@@H](C)O[C@H]5[C@H](O)[C@H]3O)[C@H]3COC(=O)[C@H]23)OCO4)cc(OC)c1O [ETOPOSIDE]	7.4 µM

Q) Provide value of IC50 for this record tested with Huh-7: `C=C1/C=C/[C@H](C(C)(C)O)C[C@H]2[C@@H](CC(C)C)c3c(O)c(C=O)c(O)c(C=O)c3O[C@]2(C)CCC1`
A) > 10 µM

Q) Provide value of IC50 for this record tested with Huh-7: `C=C(C)[C@@H]1C=C2[C@@H](C)CC[C@@H](Cc3c(O)c(C=O)c(O)c(C(=O)CC(C)C)c3O)[C@]2(C)CC1`
A) > 10 µM
